MEASUREMENT_PROTOCOL: Inhibition of thrombin
ENDPOINT_NAME: IC50

MOLECULE: CC(C)C[C@@H](NC(=O)[C@H](O)Cc1cc(Cl)c(O)c(Cl)c1)C(=O)N1[C@H](C(=O)NCCCCNC(=N)N)C[C@@H]2CC[C@@H](O)C[C@@H]21
ENDPOINT_NAME: IC50
MEASURED_VALUE: > 45.5 µM

For CC[C@H](C)[C@@H](NC(=O)[C@H](O)Cc1cc(Cl)c(O)c(Br)c1)C(=O)N1[C@H](C(=O)NCCCCNC(=N)N)C[C@@H]2CC[C@@H](OS(=O)(=O)O)C[C@@H]21 (relative stereo) , what is its reported IC50?
> 45.5 µM

For CC[C@H](C)[C@@H](NC(=O)[C@H](O)Cc1cc(Br)c(O)c(Br)c1)C(=O)N1[C@H](C(=O)NCCCCNC(=N)N)C[C@@H]2CC[C@@H](OS(=O)(=O)O)C[C@@H]21 (relative stereo) , what is its reported IC50?
> 45.5 µM
